Biological target: Bombesin receptor subtype-3 (Homo sapiens)
Sequence (P32247 whole entry): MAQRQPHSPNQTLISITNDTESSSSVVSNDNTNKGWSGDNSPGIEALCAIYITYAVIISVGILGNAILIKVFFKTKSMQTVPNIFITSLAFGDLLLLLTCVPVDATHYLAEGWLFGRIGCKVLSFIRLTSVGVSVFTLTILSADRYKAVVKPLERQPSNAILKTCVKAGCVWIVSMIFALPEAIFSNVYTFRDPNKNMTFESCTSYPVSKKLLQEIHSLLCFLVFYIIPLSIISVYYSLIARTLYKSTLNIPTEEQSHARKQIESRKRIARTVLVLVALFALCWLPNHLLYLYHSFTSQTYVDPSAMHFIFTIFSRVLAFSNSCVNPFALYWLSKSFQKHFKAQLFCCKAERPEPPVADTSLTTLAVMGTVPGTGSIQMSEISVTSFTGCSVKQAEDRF
Assay: Effective concentration required against human bombesin receptor 3 (BRS-3) in CHO cells by using FLIPR assay.
Square brackets hold non-standard residues; d marks the D form. Peptide text beside a SMILES is read from it. * marks the point of attachment. NHPhenethyl = c1ccc(CCN*)cc1; Nle = CCCC[C@H](N)C(=O)O; PhAc = O=C(Cc1ccccc1)*; βAla = NCCC(=O)O
Simple rule here: EC50 less than 80 nM is yes, otherwise no.

Given the entry "C[C@H](NC(=O)Cc1ccc(Cl)cc1)C(=O)N[C@@H](Cc1c[nH]c2ccccc12)C(=O)NCCc1ccccc1" , would its reported EC50 be below 80 nM?
no

Next entry: CCCC[C@H](NC(=O)[C@H](Cc1ccccc1)NC(=O)[C@H](Cc1cnc[nH]1)NC(=O)CCNC(=O)[C@@H](NC(=O)[C@H](C)NC(=O)[C@H](Cc1c[nH]c2ccccc12)NC(=O)[C@H](CCC(N)=O)NC(=O)[C@H](N)Cc1ccc(O)cc1)C(C)C)C(N)=O (H-[dY]QWAV[βAla]HF[Nle]-NH2)
no

Note, next up: O=C(CN1CCN(Cc2ccccc2)CC1)NC(Cc1c[nH]c2ccccc12)C(=O)NCCc1ccccc1 (stereo unspecified)
yes

Now consider NC(=O)CC[C@H](NC(=O)Cc1ccccc1)C(=O)N[C@@H](Cc1c[nH]c2ccccc12)C(=O)NCCc1ccccc1 (PhAc-Gln-Trp-NHPhenethyl) .
no

Same question for C[C@H](NC(=O)CC1NCCc2ccccc21)C(=O)N[C@@H](Cc1c[nH]c2ccccc12)C(=O)NCCc1ccccc1 (stereo partly specified) please.
no

How about this molecule: O=C(NNCc1ccc(Cl)cc1)NC(Cc1c[nH]c2ccccc12)C(=O)NCCc1ccccc1 (stereo unspecified)
yes

What do you have for O=C(N/N=C/c1ccco1)NC(Cc1c[nH]c2ccccc12)C(=O)NCCc1ccccc1 (stereo unspecified) ?
yes

Then this molecule: O=C(NNCc1ccccc1)NC(Cc1c[nH]c2ccccc12)C(=O)NCCc1ccccc1 (stereo unspecified)
yes

More entries:
Is 80 nM strictly greater than the molecule's reported EC50? molecule: "NC(=O)CC[C@H](NC(=O)CCc1ccc(Cl)cc1)C(=O)N[C@@H](Cc1c[nH]c2ccccc12)C(=O)NCCc1ccccc1"
no

Now the molecule O=C(N/N=C/c1ccc(Cl)cc1)NC(Cc1c[nH]c2ccccc12)C(=O)NCCc1ccccc1 (stereo unspecified)
no

Values from ChEMBL document CHEMBL1145035
